Overview of reported pEC50 across a group of molecules:
experimental system: UniProt:O14842
assay info: Inositol phosphate accumulation assay (A9_GPR40 cells)
Format: cell-based
Design: expressed in transfected cells; host or cells: CHO cells stably transfected with GPR40 and aequorin
condition: inositol phosphate assay, A9_GPR40 cells, 1 hour; read-out: IP3 EC50
pEC50: −log10 of the molar value.

Here is how some molecules turned out for pEC50.
- molecule: "CCC(CC(=O)O)c1cccc(OCc2ccc(-c3cc(OC)ccc3F)c(C3CCCCC3(C)C)c2)c1 (single isomer, unassigned)"
  outcome measure: "pEC50"
  result: "> 8.00"
- molecule: "COc1ccc(F)c(-c2ccc(COc3cccc(C(CC(=O)O)C4CC4)c3F)cc2C(OC)C(C)(C)C)c1 (single isomer, unassigned)"
  outcome measure: "pEC50"
  result: "> 8.00"
- molecule: "CCC(CC(=O)O)c1cccc(OCc2ccc(-c3cc(OC)ccc3F)c(C(C)C(C)(C)C)c2)c1F (single isomer, unassigned)"
  outcome measure: "pEC50"
  result: "> 8.00"
- molecule: "COc1ccc(F)c(-c2ccc(COc3cccc(C(C)CC(=O)O)c3)cc2C2=CCCCCC2)c1 (single isomer, unassigned)"
  outcome measure: "pEC50"
  result: "7.00 to 8.00"
- molecule: "CCC(CC(=O)O)c1cc(F)cc(OCc2ccc(-c3cc(OC)ccc3F)c(C3CCCC3(C)C)c2)c1F (single isomer, unassigned)"
  outcome measure: "pEC50"
  result: "> 8.00"

Now take the following molecule into account.
Form field: pEC50 recorded for COc1cc(-c2ccc(COc3cccc(C(CC(=O)O)CC4CC4)c3F)cc2C2CCCC2(C)C)c(F)cn1 (single isomer, unassigned) with UniProt:O14842 (enter value)
> 8.00

---

experimental system: GPR40 (Homo sapiens, UniProt O14842)
Sequence (O14842 whole entry): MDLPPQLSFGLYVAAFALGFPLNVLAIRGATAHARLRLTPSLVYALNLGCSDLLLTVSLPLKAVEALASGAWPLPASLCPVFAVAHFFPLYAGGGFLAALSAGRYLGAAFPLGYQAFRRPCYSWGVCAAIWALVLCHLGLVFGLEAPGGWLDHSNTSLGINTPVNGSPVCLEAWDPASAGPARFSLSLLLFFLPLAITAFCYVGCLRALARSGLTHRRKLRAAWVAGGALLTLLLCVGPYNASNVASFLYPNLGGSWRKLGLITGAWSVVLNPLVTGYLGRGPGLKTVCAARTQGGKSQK
assay info: Inositol phosphate accumulation assay (A9_GPR40 cells)
Assay type: cell-based
Design: expressed in transfected cells; host or cells: CHO cells stably transfected with GPR40 and aequorin
condition: inositol phosphate assay, A9_GPR40 cells, 1 hour; read-out: IP3 EC50
Procedure: Briefly, the Aequorin assays were performed on doubly stable CHO cells expressing GPR40 and Aequorin DNA. […] The luminescence was recorded over a period of 20 seconds with a Microlumat luminometer (Berthold). […] The inositol phosphate assay was performed on an A9 cell line stably transfected with GPR40 (A9_GPR40). The cells were incubated with different concentrations of compounds and [^3H] inositol accumulation was measured after 1 hour. […]
pEC50: −log10 of the molar value.
Readings of pEC50 for the listed compounds

Study these solved cases before continuing.
- compound: "CC1(C)CCC[C@@H]1c1cc(COc2cccc([C@@H](CC(=O)O)C3CC3)c2F)ccc1-c1cc(F)ccc1F (single isomer, unassigned) [Example 83.25]"
  experimental system: "GPR40 (Homo sapiens, UniProt O14842)"
  pEC50: "7.00 to 8.00"
- compound: "COc1ccc(F)c(-c2ccc(COc3cccc(C(CC(=O)O)CC4CC4)c3)cc2C2CCCCCC2)c1 (single isomer, unassigned) [Example 69.1]"
  experimental system: "GPR40 (Homo sapiens, UniProt O14842)"
  pEC50: "> 8.00"
- compound: "C=CC(C)(C)C(OC)c1cc(COc2cccc(C(CC(=O)O)CC3CC3)c2)ccc1-c1cc(OC)ccc1F (single isomer, unassigned) [Example 69.38]"
  experimental system: "GPR40 (Homo sapiens, UniProt O14842)"
  pEC50: "> 8.00"
- compound: "COc1ccc(F)c(-c2ccc(COc3cccc(C(C)CC(=O)O)c3)cc2C2=CCC(C(C)(C)C)CC2)c1 (single isomer, unassigned) [Example 64.13]"
  experimental system: "GPR40 (Homo sapiens, UniProt O14842)"
  pEC50: "7.00 to 8.00"
- compound: "COc1ccc(F)c(-c2ccc(COc3cccc(C(CC(=O)O)C4CC4)c3)cc2C2=CCCCC2(C)C)c1 (single isomer, unassigned) [Example 66.10]"
  experimental system: "GPR40 (Homo sapiens, UniProt O14842)"
  pEC50: "> 8.00"
- compound: "COc1ccc(F)c(-c2ccc(COc3cccc(C(C)CC(=O)O)c3)cc2C2CCCCCC2)c1 (single isomer, unassigned) [Example 64.17]"
  experimental system: "GPR40 (Homo sapiens, UniProt O14842)"
  pEC50: "7.00 to 8.00"
- compound: "CCC[C@H](CC(=O)O)c1cccc(OCc2ccc(-c3cc(OC)ccc3F)c(C3=CCCC3(C)C)c2)c1 (single isomer, unassigned) [Example 59]"
  experimental system: "GPR40 (Homo sapiens, UniProt O14842)"
  pEC50: "7.00 to 8.00"
- compound: "CCC[C@H](CC(=O)O)c1cccc(OCc2ccc(-c3cc(OC)ccc3F)c(C(C)(C)C)c2)c1 (single isomer, unassigned) [Example 43]"
  experimental system: "GPR40 (Homo sapiens, UniProt O14842)"
  pEC50: "6.00 to 7.00"

Which measured pEC50 value corresponds to CCC(CC(=O)O)c1cc(F)cc(OCc2cc(C3CCCC3(C)C)c(-c3cc(OC)ccc3F)cc2F)c1 (single isomer, unassigned) [Example 88.3] ?
> 8.00

Item under review: COc1ccc(F)c(-c2ccc(COc3cccc([C@H](C)CC(=O)O)c3)cc2C2=CCCC2(C)C)c1 (single isomer, unassigned) [Example 55] . Reported pEC50?
7.00 to 8.00

Give its pEC50 value. Item: C=CC1(c2cc(COc3cccc([C@@H](CC(=O)O)C4CC4)c3)ccc2-c2cc(OC)ncc2F)CCCC1 (single isomer, unassigned) [Example 66.67]
7.00 to 8.00

What value of measured pEC50 is listed for CCC[C@H](CC(=O)O)c1cccc(OCc2ccc(-c3cc(OC)ccc3F)c([C@H]3CCCC3(C)C)c2)c1 (single isomer, unassigned) [Example 80.4] ?
> 8.00

I would be grateful if you could share the reported pEC50 for CCC(CC(=O)O)c1cc(F)cc(OCc2ccc(-c3cc(OC)ncc3F)c(C3CCCC3(C)C)c2)c1 (single isomer, unassigned) [Example 88.4] .
> 8.00

Please report the recorded pEC50 for COc1cccc(-c2ccc(COc3cccc(C(CC(=O)O)CC4CC4)c3)cc2C2CCCCCC2)c1 (single isomer, unassigned) [Example 69.11] .
7.00 to 8.00
